Collected hERG current change (%, negative = inhibition) at 1uM values appear next to each entry.
test target: human ether-à-go-go-related gene (hERG) potassium channel (human, UniProt Q12809)
Sequence (Q12809 whole entry, looked up): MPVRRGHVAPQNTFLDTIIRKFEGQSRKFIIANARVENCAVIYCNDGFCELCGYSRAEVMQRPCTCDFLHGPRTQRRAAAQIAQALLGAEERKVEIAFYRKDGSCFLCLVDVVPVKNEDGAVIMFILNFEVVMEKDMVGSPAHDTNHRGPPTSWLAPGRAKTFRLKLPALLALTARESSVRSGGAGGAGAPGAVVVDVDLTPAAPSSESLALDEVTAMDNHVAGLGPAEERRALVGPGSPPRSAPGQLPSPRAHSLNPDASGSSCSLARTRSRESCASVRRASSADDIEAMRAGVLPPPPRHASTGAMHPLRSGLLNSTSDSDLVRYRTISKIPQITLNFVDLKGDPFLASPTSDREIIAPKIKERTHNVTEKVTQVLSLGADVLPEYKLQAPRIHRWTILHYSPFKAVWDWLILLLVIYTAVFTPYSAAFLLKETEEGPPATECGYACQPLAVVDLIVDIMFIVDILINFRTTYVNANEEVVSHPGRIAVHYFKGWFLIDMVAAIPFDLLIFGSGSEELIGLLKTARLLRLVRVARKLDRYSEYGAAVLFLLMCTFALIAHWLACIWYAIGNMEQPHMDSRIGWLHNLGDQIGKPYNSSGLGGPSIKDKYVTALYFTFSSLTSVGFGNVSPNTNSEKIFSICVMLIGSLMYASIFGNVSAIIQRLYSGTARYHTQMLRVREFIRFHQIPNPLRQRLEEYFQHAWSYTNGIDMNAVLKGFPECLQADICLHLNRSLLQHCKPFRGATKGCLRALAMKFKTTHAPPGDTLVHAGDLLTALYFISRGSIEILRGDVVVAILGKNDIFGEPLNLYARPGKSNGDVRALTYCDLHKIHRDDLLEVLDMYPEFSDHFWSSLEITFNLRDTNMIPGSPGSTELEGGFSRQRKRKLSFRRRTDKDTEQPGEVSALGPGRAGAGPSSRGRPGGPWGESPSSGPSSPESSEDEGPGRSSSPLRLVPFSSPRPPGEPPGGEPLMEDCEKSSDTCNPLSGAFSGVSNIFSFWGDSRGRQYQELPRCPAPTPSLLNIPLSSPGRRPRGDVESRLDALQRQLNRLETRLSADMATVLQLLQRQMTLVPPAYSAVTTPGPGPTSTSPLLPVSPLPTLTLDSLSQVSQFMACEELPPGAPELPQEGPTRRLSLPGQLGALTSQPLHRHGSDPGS
assay comment: primary screen, population patch clamp on CHO cells stably expressing hERG; higher = less effect of the substance
The whole screen tested about 310,000 compounds, of which about 2,200 (0.71%) showed an effect of 50% or more. Effects have a minus sign here. Many of the other results were omitted from the sample, so strong results are more common in it than they were.
Just the number in %, nothing appended.

molecule	numeric value
COc1nnc(-c2ccc(C)c(S(=O)(=O)N(C)C)c2)c2ccccc12	-53.6
COc1nnc(-c2ccc(C)c(S(N)(=O)=O)c2)c2ccccc12	3.63
Cn1c(SCC(=O)NCCN2C(=O)CSC2=O)nc2ccccc2c1=O	7.27
CCn1c(SCC(=O)N2CCCC2)nc2ccccc2c1=O	-7.76
CCOc1ccc2nc(NC(=O)c3cc([N+](=O)[O-])ccc3N3CCOCC3)sc2c1	8.4
COc1ccccc1NC(=S)NC1CCCC1	14.8
NC(=O)c1sc2nc(N3CCCCC3)c3c(c2c1N)CCCC3	4.86
Cn1cc(CN2CCC(n3nccc3NC(=O)c3ccccc3Cl)CC2)cn1	-4.32

Prompt: Find the measured hERG current change (%, negative = inhibition) at 1uM: item "COc1cc2c(cc1OC)CN(Cc1cc(=O)n3c(-c4ccccc4)csc3n1)CC2" , target or system human ether-à-go-go-related gene (hERG) potassium channel (human, UniProt Q12809).
Completion: 14.9

Prompt: Find the measured hERG current change (%, negative = inhibition) at 1uM: item "CCc1ccc(CN2CCC(n3nccc3NC(=O)c3ccccc3C)CC2)cc1" , target or system human ether-à-go-go-related gene (hERG) potassium channel (human, UniProt Q12809).
Completion: -85.1

Prompt: Find the measured hERG current change (%, negative = inhibition) at 1uM: item "O=C(CSc1nc2ccccc2c(=O)n1Cc1ccco1)NCCN1C(=O)CSC1=O" , target or system human ether-à-go-go-related gene (hERG) potassium channel (human, UniProt Q12809).
Completion: -56

Prompt: Find the measured hERG current change (%, negative = inhibition) at 1uM: item "O=C(CSc1nc2ccccc2c(=O)n1Cc1ccco1)N1CCCCCC1" , target or system human ether-à-go-go-related gene (hERG) potassium channel (human, UniProt Q12809).
Completion: -82.8

Prompt: Find the measured hERG current change (%, negative = inhibition) at 1uM: item "Cn1c(N)c(C(=O)COC(=O)CSc2ccc(Cl)cc2)c(=O)n(C)c1=O" , target or system human ether-à-go-go-related gene (hERG) potassium channel (human, UniProt Q12809).
Completion: -2.13

Prompt: Find the measured hERG current change (%, negative = inhibition) at 1uM: item "CN(Cc1cccc(-n2cccn2)c1)Cc1cn(C)nc1-c1ccccc1F" , target or system human ether-à-go-go-related gene (hERG) potassium channel (human, UniProt Q12809).
Completion: 16.7

Prompt: Find the measured hERG current change (%, negative = inhibition) at 1uM: item "CCn1c(SCC(=O)N2CCCCCC2)nc2ccccc2c1=O" , target or system human ether-à-go-go-related gene (hERG) potassium channel (human, UniProt Q12809).
Completion: 2.02

====

test target: human ether-à-go-go-related gene (hERG) potassium channel (human, UniProt Q12809)
assay comment: primary screen, population patch clamp on CHO cells stably expressing hERG; higher = less effect of the substance
From the text: Briefly, Chinese hamster ovary (CHO) cells stably expressing the hERG channel were dislodged from tissue culture flasks and dispensed into PPC plates. […] Small molecule effects on hERG current density were quantified by […].
The whole screen tested about 310,000 compounds, of which about 2,200 (0.71%) showed an effect of 50% or more. Effects have a minus sign here. The entries come from a sample that favours strong results as a whole.
readout kind: hERG current change (%, negative = inhibition) at 1uM (%)
Just the number in %, nothing appended.

compound	numeric value
COc1ccc(C2CC(c3ccccc3)=NN2C(=O)c2ccc(Cl)c([N+](=O)[O-])c2)cc1 (stereo not shown)	9.38
Cc1ccc([N+](=O)[O-])c(OCCCN2CCCCCC2)c1.O=C(O)C(=O)O	-14.5
O=C(c1ccc(Cl)cc1)C1CCCN(Cc2ccc3nonc3c2)C1 (stereo not shown)	0.831
Cl.Clc1ccc(CN2C3=NCCN3c3ccccc32)cc1	-40.4
O=[N+]([O-])c1cccc(CN2CCC(Cc3ccccc3)CC2)c1	-45.6

Prompt: Need hERG current change (%, negative = inhibition) at 1uM of "COc1ccccc1NC(=O)c1ccc(COc2ccccc2Br)o1" , thanks.
Completion: 13.8

Prompt: Need hERG current change (%, negative = inhibition) at 1uM of "Cl.Clc1ccc(CN2C3=NCCN3c3ccccc32)cc1Cl" , thanks.
Completion: -72.3

Prompt: Need hERG current change (%, negative = inhibition) at 1uM of COc1ccc(CN2CCCC(C(=O)c3ccc(Cl)cc3)C2)c(OC)c1 (stereo not shown) , thanks.
Completion: -53.6

Prompt: Need hERG current change (%, negative = inhibition) at 1uM of "Cc1cc(OCCN2CCOCC2)ccc1[N+](=O)[O-].O=C(O)C(=O)O" , thanks.
Completion: 10.6

Prompt: Need hERG current change (%, negative = inhibition) at 1uM of "Cl.Fc1ccc(CN2C3=NCCCN3c3ccccc32)cc1" , thanks.
Completion: -32.8
